- experiment.description: Side-chain acidity: pKa by 1H NMR titration of free amino acids
- Assay type: physicochemical
- condition.details: aqueous KH2PO4 solution titrated with sodium hydroxide, experimental error ±0.15, read-out: Ammonium pKa
Each item that follows carries a reported pKa.
Number, no unit, nothing else.

Some compounds with recorded pKa:
chemical.structure | pKa
N[C@@H](Cc1cc(Br)c(O)c(Br)c1)C(=O)O | 9.47
N[C@@H](Cc1cc(I)c(O)c(I)c1)C(=O)O | 9.38
N[C@@H](Cc1ccc(O)c(Br)c1)C(=O)O | 9.52
N[C@@H](Cc1ccc(O)c(Cl)c1)C(=O)O | 9.5
N[C@@H](Cc1cc(Cl)c(O)c(Cl)c1)C(=O)O | 9.4

Lab note: next compound to report on.
Ask: // fetch pKa given entry N[C@@H](Cc1ccc(O)c(I)c1)C(=O)O
Result: 9.37

====

Each item that follows carries a reported pKa.
- experiment.description: Side-chain acidity: pKa by 1H NMR titration of free amino acids
- Type: physicochemical
- condition.details: aqueous KH2PO4 solution titrated with sodium hydroxide, experimental error ±0.15, read-out: pKa of the phenolic side-chain

Some molecules with recorded pKa:
chemical.structure | pKa
N[C@@H](Cc1cc(Cl)c(O)c(Cl)c1)C(=O)O | 6.5
N[C@@H](Cc1cc(Br)c(O)c(Br)c1)C(=O)O | 6.5
N[C@@H](Cc1cc(I)c(O)c(I)c1)C(=O)O | 6.5
N[C@@H](Cc1ccc(O)c(I)c1)C(=O)O | 8.3
N[C@@H](Cc1ccc(O)c(Br)c1)C(=O)O | 8.3

Lab note: next molecule to report on.
Ask: // fetch pKa given entry N[C@@H](Cc1ccc(O)c(Cl)c1)C(=O)O
Result: 8.3
